Target System: HLA-B*58:01
Experiment Notes: IEDB peptide-MHC binding, purified MHC/direct/fluorescence; filed as Kd, often an IC50 or EC50 that approximates it; bounds were set here for any values at or beyond the usual limits of such assays
Condition Summary: source organism: Influenza A virus (A/quail/Hong Kong/FY298/00(H9N2))
pKd: −log10 of the molar value.
Test Readout: pKd

input: Return reported pKd; argument: ALTLNTMTK
output: ≤ 4.70

###

Target System: HLA-A*31:01
Experiment Notes: IEDB peptide-MHC binding, purified MHC/competitive/radioactivity; filed as Kd, often an IC50 or EC50 that approximates it; bounds were set here for any values at or beyond the usual limits of such assays
Condition Summary: source organism: Vaccinia virus WR
Assign labels as follows, please: Satisfied for Kd below 5 µM; Not satisfied for Kd equal to or exceeding 5 µM.

Would you please look over these solved cases?
TVKMGAFMY ... Satisfied
MTLDDLAIK ... Satisfied
TSLAIKNYY ... Satisfied
SIHLTKTDK ... Not satisfied
EIINDKGKQY ... Not satisfied

input: Determine if GAAVTLNRIK shows Kd strictly lower than 5 µM.
output: Not satisfied

input: Determine if TTLLNETAK shows Kd strictly lower than 5 µM.
output: Satisfied

input: Determine if HLTKTDKKY shows Kd strictly lower than 5 µM.
output: Not satisfied

input: Determine if LFSKNILKY shows Kd strictly lower than 5 µM.
output: Satisfied

input: Determine if SVSIILANER shows Kd strictly lower than 5 µM.
output: Satisfied

input: Determine if LLKILDNLR shows Kd strictly lower than 5 µM.
output: Satisfied

###

Target System: HLA-A*26:01
Experiment Notes: IEDB peptide-MHC binding, purified MHC/direct/fluorescence; filed as Kd, often an IC50 or EC50 that approximates it; bounds were set here for any values at or beyond the usual limits of such assays
Condition Summary: source organism: Influenza A virus (A/shorebird/Delaware Bay/277/2000(H9N7))
Test Readout: pKd
Convention used: pKd is expressed as -log10 of the molar concentration.

input: Return reported pKd; argument: TTAKAMEQM
output: 7.31

###

Target System: HLA-B*27:05
Experiment Notes: IEDB peptide-MHC binding, purified MHC/direct/fluorescence; filed as Kd, often an IC50 or EC50 that approximates it; bounds were set here for any values at or beyond the usual limits of such assays
Condition Summary: source organism: Salmonella enterica subsp. enterica serovar Typhi
pKd: −log10 of the molar value.
Test Readout: pKd

input: Return reported pKd; argument: PSEDEQQGH
output: ≤ 4.70

###

Target System: HLA-A*03:01
Experiment Notes: IEDB peptide-MHC binding, purified MHC/competitive/fluorescence; filed as Kd, often an IC50 or EC50 that approximates it; bounds were set here for any values at or beyond the usual limits of such assays
Condition Summary: source organism: Rickettsia sibirica 246
Test Readout: Kd

input: Return reported Kd; argument: NLQPPALSK
output: 430 nM

###

Target System: HLA-A*02:01
Experiment Notes: IEDB peptide-MHC binding, purified MHC/competitive/fluorescence; filed as Kd, often an IC50 or EC50 that approximates it; bounds were set here for any values at or beyond the usual limits of such assays
Condition Summary: source organism: Acinetobacter baumannii
Test Readout: Kd

input: Return reported Kd; argument: SIYAGNTPK
output: ≥ 20 µM
